target: vancomycin; assay: plate assay as in Example 1: synthetic peptide on streptavidin, biotinylated vancomycin titrated
pEC50: −log10 of the molar value. Where no end group is shown, it is not given here.
parameter: pEC50

binder	pEC50
PCELIDMFGNDHCP (cysteine pairing not given here; also: biotinylated, site not given here) [synthetic peptide comprising SEQ ID NO: 3]	> 7.00
STCLIDMYGVCH (cysteine pairing not given here; also: biotinylated, site not given here) [synthetic peptide comprising SEQ ID NO: 9]	> 6.00
STCLIDMYGVCHSSCLIDMYGVCH (cysteine pairing not given here; also: biotinylated, site not given here) [synthetic peptide comprising SEQ ID NO: 10]	> 6.00
CLIDMYGVCHNFDGAYDS (cysteine pairing not given here; also: biotinylated, site not given here) [synthetic peptide comprising SEQ ID NO: 1]	> 7.00

Shift focus to the following entry.
Incoming: Write down pEC50 measured for item CLFDIFGVCHSFDGAYDS (cysteine pairing not given here; also: biotinylated, site not given here) [synthetic peptide comprising SEQ ID NO: 2]
Outgoing: > 7.00
